test system: SK-MEL-5; experiment: NCI tumour cell line growth inhibition, 48 h
Calls of active or inactive are those of the source. Cut-off read from the data, not from the text of the source: active = GI50 up to about 1.1 µM and inactive = higher.
Answer each item with its documented GI50.

Query: Param readout= GI50; system= SK-MEL-5; entry= `O=C(c1cccs1)N(C(=S)OCc1ccccn1)c1ccccc1` ; returns value.
Reply: 51.2 µM (inactive)

Query: Param readout= GI50; system= SK-MEL-5; entry= `O=c1oc2ccccc2c(-c2ccc(O)cc2)c1Oc1ccc(Cl)cc1` ; returns value.
Reply: 18.3 µM (inactive)

Query: Param readout= GI50; system= SK-MEL-5; entry= `NCCOCCOCC(=O)O` ; returns value.
Reply: > 100 µM (inactive)

Query: Param readout= GI50; system= SK-MEL-5; entry= O=C(CC1C(=O)Nc2ccccc2[S+]1[O-])Nc1cccc(Cl)c1 (stereo unspecified) ; returns value.
Reply: > 30.9 µM (inactive)

Query: Param readout= GI50; system= SK-MEL-5; entry= COc1ccc(CN(O)C2C(CO)OC(n3cc(I)c(=O)[nH]c3=O)C2O)cc1 (stereo unspecified) ; returns value.
Reply: > 100 µM (inactive)

Query: Param readout= GI50; system= SK-MEL-5; entry= `CC(C)(C)OC(=O)N1C[C@H](CC(=O)OCc2ccccc2)C[C@H]1C(=O)OCC(Cl)(Cl)Cl` ; returns value.
Reply: 2.24 µM (inactive)

Query: Param readout= GI50; system= SK-MEL-5; entry= CC(C(=O)O)c1cnn(-c2ccccc2)c1-n1cccc1 (stereo unspecified) ; returns value.
Reply: > 100 µM (inactive)

Query: Param readout= GI50; system= SK-MEL-5; entry= CCCN1C(=O)CC(C)N(Cc2ccccc2Cl)C1=S (stereo unspecified) ; returns value.
Reply: 17.8 µM (inactive)

Query: Param readout= GI50; system= SK-MEL-5; entry= `N#Cc1c(NC(=S)NCc2ccccc2)sc2c1CCN(N1CCc3c(sc(NC(=S)NCc4ccccc4)c3C#N)C1)C2` ; returns value.
Reply: > 100 µM (inactive)

Query: Param readout= GI50; system= SK-MEL-5; entry= `COC(=O)C(CCSc1ccccc1)C(=O)OC` ; returns value.
Reply: > 100 µM (inactive)

Query: Param readout= GI50; system= SK-MEL-5; entry= O=C1C(Cl)N(c2ccc(Cl)cc2)C1c1c[nH]c2ccccc12 (stereo unspecified) ; returns value.
Reply: 15.5 µM (inactive)
